System: Crude diglycosidase
Assay: Examination of substrate concentration in the conversion into isoflavone aglycons by diglycosidase using soybean materials;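 note: percent of the isoflavone family total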
Assay type: biochemical, Penicillium multicolor IAM7153
Details: soymilk, substrate concentration 30%, heat treatment of enzyme no, reaction time 3 h
metric-name: Decomposition efficiency: ratio of each glycoside/aglycon within its isoflavone family

In [3]: df
Out[3]:
                            chemical_smiles          test_target  measured_value
0  COc1cc2c(=O)c(-c3ccc(O)cc3)coc2cc1O[C@@H]1O[C@H](COC(C)=O)[C@@H](O)[C@H](O)[C@H]1O  Crude diglycosidase    not detected
1  CC(=O)OC[C@H]1O[C@@H](Oc2cc(O)c3c(=O)c(-c4ccc(O)cc4)coc3c2)[C@H](O)[C@@H](O)[C@@H]1O  Crude diglycosidase    not detected
2  COc1cc2c(=O)c(-c3ccc(O)cc3)coc2cc1O[C@@H]1O[C@H](COC(=O)CC(=O)O)[C@@H](O)[C@H](O)[C@H]1O  Crude diglycosidase           15.9%
